- Tested on: HeLa cells
- protocol notes: MTS cell proliferation and/or cytotoxicity assay
- Format: cell-based, Human
- experimental conditions: Homo sapiens, HeLa, 72 h, concentration at which 50% of antiproliferative cell response is seen; 3 days incubation; read-out: MTS Data Hella
// reported pIC50 per item
Interpret pIC50 as the negative base-10 log of the concentration measured in mol/L.

Query string: For the compound shown here, O=C(CCN1CCCC1)N[C@@H]1CCN(c2c(F)cc3c(=O)c(C(=O)NCCN4CCCC4)cn4c3c2Oc2cc3c(cc2-4)oc2ccccc23)C1 , give the reported pIC50.
Result string: 5.62

Query string: Which measured pIC50 value corresponds to O=C(NCCN1CCCC1)c1cn2c3c(c(NCCCN4CCOCC4)c(F)cc3c1=O)Oc1cc3c(cc1-2)-c1ccccc1C3 ?
Result string: 5.48

Query string: Which value of pIC50 has been reported for CN1CCCC1CCNC(=O)c1cn2c3c(c(N4CC[C@@H](NC(=O)CCN5CCCCC5)C4)c(F)cc3c1=O)Oc1cc3c(cc1-2)oc1ccccc13 (stereo partly drawn) in the records?
Result string: 5.51

Query string: Endpoint output: pIC50 of O=C(CCNCCN1CCOCC1)N[C@@H]1CCN(c2c(F)cc3c(=O)c(C(=O)NCCN4CCCC4)cn4c3c2Oc2cc3c(cc2-4)oc2ccccc23)C1 . Value?
Result string: 5.24

Query string: What pIC50 value was documented for this compound, N[C@@H]1CCN(c2c(F)cc3c(=O)c(C(=O)NCCCN4CCOCC4)cn4c3c2Oc2cc3c(cc2-4)oc2ccccc23)C1 ?
Result string: 5.57

Query string: Item under review: O=C(NCCC1CCCN1)c1cn2c3c(c(NCCCN4CCOCC4)c(F)cc3c1=O)Oc1cc3c(cc1-2)oc1ccccc13 (stereo not drawn) . Reported pIC50?
Result string: 6.07
